Kindly state phosphorylation enrichment for each of the entries shown.
system: c-Abl (mouse); test: phosphorylation enrichment, bacterial display (enrichment ratio); higher = better substrate or ligand; peptides without Tyr show the background
Answers are plain numbers.

Please review the following examples before continuing.
MACROMOLECULE_SEQUENCE	SYSTEM_NAME	phosphorylation enrichment
HVIKFYGACSQ [RET_Y791_L790F]	c-Abl (mouse)	1.4
FLQEIYNSNNQ [FGG_Y140_YF]	c-Abl (mouse)	0.713
AHAGKYGAEAL [HBA1_Y25_E24K]	c-Abl (mouse)	0.451
EEGRVYVFHLS [ITGAE_Y549_R552H_YF]	c-Abl (mouse)	0.825
GCRSKYVRLWG [KCNQ1_Y184_G186R]	c-Abl (mouse)	0.492

Parameter requested: phosphorylation enrichment. Apply to each item below.
1. LQIPMYEVQWK [KIT_Y553_K550I]
2. FGYPGYQCKHY [TIMP3_Y177_S179C]
3. TLLERYGMTEI [ACSF3_Y355]
4. SARHHYESLQT [BIN1_Y157]
5. VRALTYCDLHK [KCNH2_Y827]
6. CTNPQYLAAGS [RABL3_Y185_R184Q]

Result:
1. 1.01
2. 0.473
3. 0.516
4. 0.636
5. 0.656
6. 0.602

###

target: Grb2 SH2 (UniProt P62993); assay: SH2 binding enrichment of the phosphorylated peptide, bacterial display (enrichment ratio); higher = better substrate or ligand; peptides without Tyr show the background
Sequence (P62993 whole entry, looked up): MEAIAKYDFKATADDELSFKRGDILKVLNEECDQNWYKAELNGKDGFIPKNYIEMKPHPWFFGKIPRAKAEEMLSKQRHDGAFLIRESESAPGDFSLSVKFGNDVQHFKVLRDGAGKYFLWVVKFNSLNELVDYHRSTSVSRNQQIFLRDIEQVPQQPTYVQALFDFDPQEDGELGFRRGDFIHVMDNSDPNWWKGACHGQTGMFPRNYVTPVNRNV
Kindly state SH2 binding enrichment for each of the entries shown.
One number for each entry.

Please review the following examples before continuing.
MACROMOLECULE_SEQUENCE	SYSTEM_NAME	SH2 binding enrichment
NSVLVYRNGDP [DCDC2_Y22_K17N]	Grb2 SH2 (UniProt P62993)	0.773
AVAFLYYKSIG [ADGRL4_Y301_V300L]	Grb2 SH2 (UniProt P62993)	0.722
GGQVFHNSEYG [FLT4_Y1333_Y1333H]	Grb2 SH2 (UniProt P62993)	0.665
RGNMYYENSYA [EGFR_Y113]	Grb2 SH2 (UniProt P62993)	10.5
PGVDIYISPNM [PADI3_Y51]	Grb2 SH2 (UniProt P62993)	0.728
EVESPYEVRDY [GIGYF2_Y1168_H1171R]	Grb2 SH2 (UniProt P62993)	0.674

Request: // returns reported SH2 binding enrichment for input AAYNRYDQERF [CDC73_Y293]
Result: 0.737

###

Kindly state phosphorylation enrichment for each of the entries shown.
tested on: c-Abl (mouse); test: phosphorylation enrichment, bacterial display (enrichment ratio); higher = better substrate or ligand; peptides without Tyr show the background

Please review the following examples before continuing.
MACROMOLECULE_SEQUENCE	phosphorylation enrichment
RELGEYPLAEF [ALDH1A3_Y492_A493P_YF]	0.753
SSENPCATIKD [MEGF10_Y1030_Y1030C]	0.509

Parameter requested: phosphorylation enrichment. Apply to each item below.
1. RQGQAYRGQRV [TSHR_Y706_A703G]
2. MLEVPYVDHNS [F10_Y384_R387H]
3. HNQDGYSYLSR [LDLR_Y845_P848L]
4. RAILDYIASKF [GSTA3_Y74_N73D_YF]
5. CTTIYYNYMCN [TP53_Y234_H233Y]
6. WDLSEYSFKDP [ITGA3_Y237_YF]
7. MRALIYNSSTV [PLEKHA7_Y243_A248V]
8. LLSVAYKNVVG [YWHAG_Y49]

Result:
1. 0.458
2. 0.817
3. 0.551
4. 0.603
5. 6.37
6. 0.853
7. 0.872
8. 1.05

Parameter requested: phosphorylation enrichment. Apply to each item below.
1. LQTFRYHGLSM [PDHA1_Y289_H292L_YF]
2. CTTIHCNFMCN [TP53_Y234_Y234C_YF]
3. KSLFHYRQFSA [CPS1_Y1491_YF]
4. ECKHLYSRKEG [PTPN11_Y263_L261H]
5. CNTIHYNFMCN [TP53_Y234_T230N_YF]

Result:
1. 0.589
2. 0.629
3. 0.59
4. 0.458
5. 0.601

###

biological target: FGFR3 (UniProt P22607); experiment: phosphorylation enrichment, bacterial display (enrichment ratio); higher = better substrate or ligand; peptides without Tyr show the background
Sequence (P22607 whole entry, looked up): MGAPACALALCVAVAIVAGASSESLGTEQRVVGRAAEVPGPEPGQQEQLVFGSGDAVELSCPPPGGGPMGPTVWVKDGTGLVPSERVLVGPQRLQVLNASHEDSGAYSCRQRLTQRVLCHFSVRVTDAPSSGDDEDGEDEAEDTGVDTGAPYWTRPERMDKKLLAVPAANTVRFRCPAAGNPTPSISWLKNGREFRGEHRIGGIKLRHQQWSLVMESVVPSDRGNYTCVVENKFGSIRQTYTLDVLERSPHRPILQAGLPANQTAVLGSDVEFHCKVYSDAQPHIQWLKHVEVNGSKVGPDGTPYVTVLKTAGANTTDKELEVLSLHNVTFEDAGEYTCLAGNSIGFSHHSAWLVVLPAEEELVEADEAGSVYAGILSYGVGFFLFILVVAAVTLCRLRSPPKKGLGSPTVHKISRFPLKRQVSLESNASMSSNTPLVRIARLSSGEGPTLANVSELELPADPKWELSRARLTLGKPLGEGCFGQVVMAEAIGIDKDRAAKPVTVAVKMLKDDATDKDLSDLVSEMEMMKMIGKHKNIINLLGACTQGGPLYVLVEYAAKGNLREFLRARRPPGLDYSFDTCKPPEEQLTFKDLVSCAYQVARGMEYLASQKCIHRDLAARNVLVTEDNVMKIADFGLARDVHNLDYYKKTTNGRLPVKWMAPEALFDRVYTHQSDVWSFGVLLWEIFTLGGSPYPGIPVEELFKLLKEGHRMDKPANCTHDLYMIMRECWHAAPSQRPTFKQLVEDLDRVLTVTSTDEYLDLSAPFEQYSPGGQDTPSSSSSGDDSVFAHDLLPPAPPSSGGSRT
Would you please tag the item Fulfilled when its phosphorylation enrichment is 0.7 or above, and Not fulfilled when it is below?

MACROMOLECULE_SEQUENCE	LABEL_CLASS
WRPFGYPRRRR [BCS1L_Y181]	Not fulfilled
VTRANYFIRDE [GNAS_Y339_K338N]	Not fulfilled

Request: Decide: phosphorylation enrichment of SVAVPYEPPEV [TP53_Y220_V217A] >= 0.7?
Result: Fulfilled

Request: Next sequence up: TKVVHYRKWIK [KLK2_Y249]
Result: Not fulfilled

Request: Next sequence up: YPKVRYHWLVL [APTX_Y214_A212V]
Result: Fulfilled

Request: Next sequence up: IRDENYGEGSS [ACO2_Y665_G661R]
Result: Not fulfilled

Request: Next sequence up: REVKAYGAGLL [TH_Y419_G414R]
Result: Fulfilled

Request: Next sequence up: PAIERYVVVCK [RHO_Y136_L131P]
Result: Fulfilled

Request: Next sequence up: FGYPGYQCKHY [TIMP3_Y177_S179C]
Result: Not fulfilled

Request: Next sequence up: LQEQNYLAVDS [FAM114A1_Y115]
Result: Fulfilled

Request: Next sequence up: LFMGDYVGRGF [PPP2CA_Y86_D88G_YF]
Result: Fulfilled

Request: Next sequence up: KRNSLYSFSDH [CCDC82_Y331_Q327R]
Result: Not fulfilled

Request: Next sequence up: SLESAYPEVSQ [TTF1_Y357_G360V]
Result: Not fulfilled

Request: Next sequence up: AHAGEYGAGAL [HBA1_Y25_E28G]
Result: Not fulfilled

Request: Next sequence up: VDTGVYAVPPP [BCAR1_Y410_S407T]
Result: Fulfilled

Request: Next sequence up: HYPDVYAWEQL [ALX3_Y181_R183W]
Result: Fulfilled

Request: Next sequence up: KFLENYLNCLL [PLD2_Y169_R172C_YF]
Result: Fulfilled

Request: Next sequence up: SNKLHYQLEQE [PDPR_Y110_Y109H]
Result: Not fulfilled

Request: Next sequence up: QELRRYLKSGV [MICA_Y194]
Result: Fulfilled

Request: Next sequence up: VGRVGYVSGWG [HP_Y280]
Result: Not fulfilled

Request: Next sequence up: SSAAGYACLAF [MVD_Y131_YF]
Result: Fulfilled

Request: Next sequence up: EDKFMYSEFPQ [PTEN_Y240_F241S]
Result: Fulfilled

###

molecular target: Jak2 (UniProt O60674); assay: phosphorylation enrichment, bacterial display (enrichment ratio); higher = better substrate or ligand; peptides without Tyr show the background
Sequence (O60674 whole entry, looked up): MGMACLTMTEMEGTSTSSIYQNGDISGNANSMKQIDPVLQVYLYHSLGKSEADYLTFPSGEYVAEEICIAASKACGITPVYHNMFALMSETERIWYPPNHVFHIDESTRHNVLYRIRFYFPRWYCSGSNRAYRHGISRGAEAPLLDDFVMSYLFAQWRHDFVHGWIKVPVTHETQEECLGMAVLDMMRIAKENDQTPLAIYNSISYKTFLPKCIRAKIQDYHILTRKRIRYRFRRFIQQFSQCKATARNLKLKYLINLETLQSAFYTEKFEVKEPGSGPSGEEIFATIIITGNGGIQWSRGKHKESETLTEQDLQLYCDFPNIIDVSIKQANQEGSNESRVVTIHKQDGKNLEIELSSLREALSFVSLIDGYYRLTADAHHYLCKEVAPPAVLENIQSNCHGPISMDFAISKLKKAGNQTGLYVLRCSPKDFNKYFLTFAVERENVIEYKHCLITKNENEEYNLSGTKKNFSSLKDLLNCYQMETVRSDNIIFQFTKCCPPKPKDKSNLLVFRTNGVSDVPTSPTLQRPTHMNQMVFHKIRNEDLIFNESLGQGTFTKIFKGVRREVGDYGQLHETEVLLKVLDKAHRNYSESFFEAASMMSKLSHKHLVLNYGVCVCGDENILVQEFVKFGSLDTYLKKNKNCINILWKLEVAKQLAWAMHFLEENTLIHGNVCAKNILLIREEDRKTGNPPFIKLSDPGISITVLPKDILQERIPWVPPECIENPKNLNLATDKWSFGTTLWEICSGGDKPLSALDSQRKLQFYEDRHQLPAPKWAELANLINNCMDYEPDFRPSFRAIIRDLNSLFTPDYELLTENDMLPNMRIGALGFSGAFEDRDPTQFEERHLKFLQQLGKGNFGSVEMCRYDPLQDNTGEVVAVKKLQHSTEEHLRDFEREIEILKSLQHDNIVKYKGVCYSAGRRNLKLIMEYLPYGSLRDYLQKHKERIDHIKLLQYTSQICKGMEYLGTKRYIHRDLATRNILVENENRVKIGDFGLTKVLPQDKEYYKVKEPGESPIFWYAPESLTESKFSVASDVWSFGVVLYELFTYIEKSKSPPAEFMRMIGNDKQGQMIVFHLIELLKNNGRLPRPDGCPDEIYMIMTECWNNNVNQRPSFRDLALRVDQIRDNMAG
Would you please tag the item YES when its phosphorylation enrichment is 0.9 or above, and NO when it is below?

Sample answers from the record:
MACROMOLECULE_SEQUENCE	LABEL_CLASS
WSQAMYPDLGP [STARD8_Y330_R327Q]	NO
SHLSAFPALEG [CD5_Y465_Y465F]	NO
NELTYYCYKKD [CD59_Y87_C89Y]	YES
KFLENYLNCLL [PLD2_Y169_R172C_YF]	YES
RELGEYPLAEF [ALDH1A3_Y492_A493P_YF]	YES
SVVVPCEPPEV [TP53_Y220_Y220C]	YES
RAIGHYSATSK [FAM120A_Y328_Y327H]	NO
AKYLGYPPPEI [KDR_Y357]	NO
MSSHHCDYKKY [ZNF445_Y428_Y428C]	NO
TESALYGCTVL [KIAA1804_Y724]	YES

Request: Decide: phosphorylation enrichment of AGTILSHAHLD [ASS1_Y291_Y291S] >= 0.9?
Result: NO

Request: Next sequence up: EFFDGYWGFSV [ITGA2B_Y265_YF]
Result: YES

Request: Next sequence up: HVSISYDIPPT [GAB1_Y307]
Result: NO

Request: Next sequence up: KNSFKYYMSDD [ATRX_Y203_C200S]
Result: YES

###

biological target: SHP2-C SH2; assay: SH2 binding enrichment of the phosphorylated peptide, bacterial display (enrichment ratio); higher = better substrate or ligand; peptides without Tyr show the background
MEASUREMENT_NAME: SH2 binding enrichment

Please review the following examples before continuing.
MACROMOLECULE_SEQUENCE	SYSTEM_NAME	SH2 binding enrichment
EATKGHLDDPT [G6PD_Y322_Y322H]	SHP2-C SH2	0.6
EVKAQNEDIAQ [KRT1_Y358_Y358N]	SHP2-C SH2	0.669
ARTNEYKIIRS [INA_Y87_T92S]	SHP2-C SH2	0.859
GGPTYYIDTNA [ACTL6A_Y69]	SHP2-C SH2	0.694
SMGHRYIEVFK [HNRNPF_Y82]	SHP2-C SH2	0.988
KMGNIYRTEFG [MRPL3_Y265_YF]	SHP2-C SH2	0.652
MLEVPYVDHNS [F10_Y384_R387H]	SHP2-C SH2	0.547
WIPIQDPIISE [NOG_Y222_Y222D]	SHP2-C SH2	0.748

Parameter requested: SH2 binding enrichment. Apply to each item below.
1. VQQVIYATRAL [MYH7_Y422_G425R]
2. EEHIPCTHMNG [INSR_Y1361_Y1361C]
3. HVIKFYGACSQ [RET_Y791_L790F]
4. FFRKFCNKSED [RYR1_Y4864_Y4864C]

Result:
1: 1.06; 2: 0.7; 3: 0.773; 4: 0.75

Parameter requested: SH2 binding enrichment. Apply to each item below.
1. KNSFKYYMSDD [ATRX_Y203_C200S]
2. YISLIYTNYEA [GSTP1_Y109]

Result:
[0.661, 1.53]

Ref: the supplement of paper PMC10065799
